- System: HeLa Kyoto;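 note: HeLa Kyoto cells arrested at G1/S by double thymidine block, proteins quantified by TMT10plex mass spectrometry in mild NP-40 versus SDS extracts, three biological replicates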
- PROTOCOL SUMMARY: solubility in G1/S (NP-40 vs SDS abundance) (log2 ratio); higher = more soluble
- COND: cell cycle stage: G1/S
QUANTITY MEASURED: solubility in G1/S (log2)
Please reply with the value in numeric form only.

# annotated cases, reported solubility in G1/S (log2) shown
MSRYLRPPNTSLFVRNVADDTRSEDLRREFGRYGPIVDVYVPLDFYTRRPRGFAYVQFEDVRDAEDALHNLDRKWICGRQIEIQFAQGDRKTPNQMKAKEGRNVYSSSRYDDYDRYRRSRSRSYERRRSRSRSFDYNYRRSYSPRNSRPTGRPRRSRSHSDNDRFKHRNRSFSRSKSNSRSRSKSQPKKEMKAKSRSRSASHTKTRGTSKTDSKTHYKSGSRYEKESRKKEPPRSKSQSRSQSRSRSKSRSRSWTSPKSSGH [SRSF10] | -0.696
MSMEDYDFLFKIVLIGNAGVGKTCLVRRFTQGLFPPGQGATIGVDFMIKTVEINGEKVKLQIWDTAGQERFRSITQSYYRSANALILTYDITCEESFRCLPEWLREIEQYASNKVITVLVGNKIDLAERREVSQQRAEEFSEAQDMYYLETSAKESDNVEKLFLDLACRLISEARQNTLVNNVSSPLPGEGKSISYLTCCNFN [RAB30] | -0.379
MPNIVLFSGSSHQDLSQRVADRLGLELGKVVTKKFSNQETSVEIGESVRGEDVYIIQSGCGEINDNLMELLIMINACKIASSSRVTAVIPCFPYARQDKKDKSRAPISAKLVANMLSVAGADHIITMDLHASQIQGFFDIPVDNLYAEPAVLQWIRENIAEWKNCIIVSPDAGGAKRVTSIADRLNVEFALIHKERKKANEVDRMVLVGDVKDRVAILVDDMADTCGTICHAADKLLSAGATKVYAILTHGIFSGPAISRINNAAFEAVVVTNTIPQEDKMKHCTKIQVIDISMILAEAIRRTHNGESVSYLFSHVPL [PRPS2] | -0.014

Just so you know, measured solubility in G1/S (log2) for MAVPAAAMGPSALGQSGPGSMAPWCSVSSGPSRYVLGMQELFRGHSKTREFLAHSAKVHSVAWSCDGRRLASGSFDKTASVFLLEKDRLVKENNYRGHGDSVDQLCWHPSNPDLFVTASGDKTIRIWDVRTTKCIATVNTKGENINICWSPDGQTIAVGNKDDVVTFIDAKTHRSKAEEQFKFEVNEISWNNDNNMFFLTNGNGCINILSYPELKPVQSINAHPSNCICIKFDPMGKYFATGSADALVSLWDVDELVCVRCFSRLDWPVRTLSFSHDGKMLASASEDHFIDIAEVETGDKLWEVQCESPTFTVAWHPKRPLLAFACDDKDGKYDSSREAGTVKLFGLPNDS [THOC3] came out at -0.421

Sample MAGQHLPVPRLEGVSREQFMQHLYPQRKPLVLEGIDLGPCTSKWTVDYLSQVGGKKEVKIHVAAVAQMDFISKNFVYRTLPFDQLVQRAAEEKHKEFFVSEDEKYYLRSLGEDPRKDVADIRKQFPLLKGDIKFPEFFKEEQFFSSVFRISSPGLQLWTHYDVMDNLLIQVTGKKRVVLFSPRDAQYLYLKGTKSEVLNIDNPDLAKYPLFSKARRYECSLEAGDVLFIPALWFHNVISEEFGVGVNIFWKHLPSECYDKTDTYGNKDPTAASRAAQILDRALKTLAELPEEYRDFYARRMVLHIQDKAYSKNSE [TYW5] ; solubility in G1/S (log2) observed: -0.0115

// solubility in G1/S (log2) value for MATDELATKLSRRLQMEGEGGGETPEQPGLNGAAAAAAGAPDEAAEALGSADCELSAKLLRRADLNQGIGEPQSPSRRVFNPYTEFKEFSRKQIKDMEKMFKQYDAGRDGFIDLMELKLMMEKLGAPQTHLGLKNMIKEVDEDFDSKLSFREFLLIFRKAAAGELQEDSGLCVLARLSEIDVSSEGVKGAKSFFEAKVQAINVSSRFEEEIKAEQEERKKQAEEMKQRKAAFKELQSTFK [EFHD2] : 0.681

Given item MAEPGEGLPEEVLALIFRHLSLRDRAAAARVCRAWAAAATCSAVWHDTKISCECELEGMLPPYLSACLDHIHNLRLEFEPSRKPSRRAAIELLMVLAGRAPGLRGLRLECRGEKPLFDAGRDVLEAVHAVCGAASQLRHLDLRRLSFTLDDALVLQAARSCPELHSLFLDNSTLVGSVGPGSVLELLEACPRLRALGLHLASLSHAILEALAAPDRAPFALLALRCACPEDARASPLPNEAWVALRRRHPGLAVELELEPALPAESVTRVLQPAVPVAALRLNLSGDTVGPVRFAAHHYAATLCALEVRAAASAELNAALEELAARCAALREVHCFCVVSHSVLDAFRAHCPRLRTYTLKLTREPHPWRPTLVA [FBXL8] , the value recorded as its solubility in G1/S (log2) is -0.196

get_value(item= MVLESVARIVKVQLPAYLKRLPVPESITGFARLTVSEWLRLLPFLGVLALLGYLAVRPFLPKKKQQKDSLINLKIQKENPKVVNEINIEDLCLTKAAYCRCWRSKTFPACDGSHNKHNELTGDNVGPLILKKKEV [CISD2] , readout=solubility in G1/S (log2)) returns 0.0551

The sequence identified as MDALKSAGRALIRSPSLAKQSWGGGGRHRKLPENWTDTRETLLEGMLFSLKYLGMTLVEQPKGEELSAAAIKRIVATAKASGKKLQKVTLKVSPRGIILTDNLTNQLIENVSIYRISYCTADKMHDKVFAYIAQSQHNQSLECHAFLCTKRKMAQAVTLTVAQAFKVAFEFWQVSKEEKEKRDKASQEGGDVLGARQDCTPSLKSLVATGNLLDLEETAKAPLSTVSANTTNMDEVPRPQALSGSSVVWELDDGLDEAFSRLAQSRTNPQVLDTGLTAQDMHYAQCLSPVDWDKPDSSGTEQDDLFSF [LDLRAP1] registered its solubility in G1/S (log2) at 0.466

In plain terms, MVRPVRHKKPVNYSQFDHSDSDDDFVSATVPLNKKSRTAPKELKQDKPKPNLNNLRKEEIPVQEKTPKKRLPEGTFSIPASAVPCTKMALDDKLYQRDLEVALALSVKELPTVTTNVQNSQDKSIEKHGSSKIETMNKSPHISNCSVASDYLDLDKITVEDDVGGVQGKRKAASKAAAQQRKILLEGSDGDSANDTEPDFAPGEDSEDDSDFCESEDNDEDFSMRKSKVKEIKKKEVKVKSPVEKKEKKSKSKCNALVTSVDSAPAAVKSESQSLPKKVSLSSDTTRKPLEIRSPSAESKKPKWVPPAASGGSRSSSSPLVVVSVKSPNQSLRLGLSRLARVKPLHPNATST [RAD51AP1] has a documented solubility in G1/S (log2) of 0.0638
